Consider the following compounds and their measured pIC50 readings.
# experimental_system: 11-beta-hydroxysteroid dehydrogenase 1 (Homo sapiens)
# Sequence (P28845 whole entry): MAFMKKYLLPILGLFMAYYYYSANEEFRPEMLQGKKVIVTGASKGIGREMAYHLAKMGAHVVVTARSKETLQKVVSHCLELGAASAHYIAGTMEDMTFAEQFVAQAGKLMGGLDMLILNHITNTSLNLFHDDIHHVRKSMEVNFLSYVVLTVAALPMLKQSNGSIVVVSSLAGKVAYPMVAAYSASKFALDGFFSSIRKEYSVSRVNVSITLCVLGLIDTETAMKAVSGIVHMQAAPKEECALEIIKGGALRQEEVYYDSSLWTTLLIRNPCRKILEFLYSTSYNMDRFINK
pIC50: −log10 of the molar value.
value_type: pIC50

{"compound": "Cc1ccc(S(=O)(=O)N2CCN(c3ncccc3Cl)CC2)cc1", "experimental_system": "11-beta-hydroxysteroid dehydrogenase 1 (Homo sapiens)", "value_type": "pIC50", "qualifier_operator": "<", "reported_result": 6.00}
{"compound": "CCC1CN(c2ncccc2C(F)(F)F)CCN1S(=O)(=O)c1ccc(C(C)(C)C)cc1 (stereo not given)", "experimental_system": "11-beta-hydroxysteroid dehydrogenase 1 (Homo sapiens)", "value_type": "pIC50", "qualifier_operator": "<", "reported_result": 6.00}
{"compound": "C[C@@H]1CN(c2ncccc2C(F)(F)F)CCN1S(=O)(=O)c1ccc(C(C)(C)C)cc1", "experimental_system": "11-beta-hydroxysteroid dehydrogenase 1 (Homo sapiens)", "value_type": "pIC50", "qualifier_operator": "=", "reported_result": 6.12}
{"compound": "O=[N+]([O-])c1ccc(S(=O)(=O)N2CCN(c3ncccc3C(F)(F)F)CC2)cc1", "experimental_system": "11-beta-hydroxysteroid dehydrogenase 1 (Homo sapiens)", "value_type": "pIC50", "qualifier_operator": "=", "reported_result": 6.04}
{"compound": "CC(C)(C)c1ccc(S(=O)(=O)N2CCN(c3ccccc3F)CC2)cc1", "experimental_system": "11-beta-hydroxysteroid dehydrogenase 1 (Homo sapiens)", "value_type": "pIC50", "qualifier_operator": "<", "reported_result": 6.00}
{"compound": "Cc1ccc(S(=O)(=O)N2CCN(c3ncccc3C)CC2)cc1", "experimental_system": "11-beta-hydroxysteroid dehydrogenase 1 (Homo sapiens)", "value_type": "pIC50", "qualifier_operator": "<", "reported_result": 6.00}
{"compound": "CCc1ccc(S(=O)(=O)N2CCN(c3ncccc3C(F)(F)F)CC2)cc1", "experimental_system": "11-beta-hydroxysteroid dehydrogenase 1 (Homo sapiens)", "value_type": "pIC50", "qualifier_operator": "=", "reported_result": 6.29}
{"compound": "N#Cc1ccc(S(=O)(=O)N2CCN(c3ncccc3C(F)(F)F)CC2)cc1", "experimental_system": "11-beta-hydroxysteroid dehydrogenase 1 (Homo sapiens)", "value_type": "pIC50", "qualifier_operator": "=", "reported_result": 6.01}
{"compound": "Cc1ccc(S(=O)(=O)N2CCN(c3ccccn3)CC2)cc1", "experimental_system": "11-beta-hydroxysteroid dehydrogenase 1 (Homo sapiens)", "value_type": "pIC50", "qualifier_operator": "<", "reported_result": 6.00}
{"compound": "O=C(c1ccccc1)N1CCN(c2ncccc2C(F)(F)F)CC1", "experimental_system": "11-beta-hydroxysteroid dehydrogenase 1 (Homo sapiens)", "value_type": "pIC50", "qualifier_operator": "<", "reported_result": 6.00}

---

# assay_protocol: Clearance in rat
# Type: ADME, organism-based
# test_context: in vivo
value_type: clearance (mL/min/kg)

{"smiles_input": "CC(C)(C)c1ccc(S(=O)(=O)N2CCN(c3ccc([N+](=O)[O-])cc3)CC2)cc1", "reported_result": 16.7}

---

remaining at 10 min listing for selected molecules.
# assay_protocol: Metabolic stability in human liver microsomes after 10 mins
# Assay type: ADME, Microsome
# test_context: read-out: Stability

{"smiles_input": "CC(C)(C)c1ccc(S(=O)(=O)N2CCN(c3ccc([N+](=O)[O-])cc3)CC2)cc1", "remaining at 10 min, %": 90}
{"smiles_input": "CC(C)(C)c1ccc(S(=O)(=O)N2CCN(c3ncccc3C(F)(F)F)CC2)cc1", "remaining at 10 min, %": 61}

---

# experimental_system: UniProtKB P50172
# Sequence (P50172 whole entry): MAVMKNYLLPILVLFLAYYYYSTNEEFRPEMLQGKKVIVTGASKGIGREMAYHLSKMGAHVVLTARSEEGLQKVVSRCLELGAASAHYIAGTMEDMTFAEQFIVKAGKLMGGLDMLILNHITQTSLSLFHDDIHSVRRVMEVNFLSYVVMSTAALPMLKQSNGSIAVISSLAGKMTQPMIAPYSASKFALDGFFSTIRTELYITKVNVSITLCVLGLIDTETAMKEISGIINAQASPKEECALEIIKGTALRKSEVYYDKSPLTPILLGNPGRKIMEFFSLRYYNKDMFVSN
# assay_protocol: Inhibition of mouse recombinant 11beta-HSD1 assessed as conversion of [3H]cortisone to [3H]cortisol by SPA assay
pIC50: −log10 of the molar value.
value_type: pIC50

{"smiles_input": "O=[N+]([O-])c1ccc(S(=O)(=O)N2CCN(c3ncccc3C(F)(F)F)CC2)cc1", "experimental_system": "UniProtKB P50172", "qualifier_operator": "=", "reported_result": 6.51}
{"smiles_input": "C[C@H]1CN(c2ncccc2C(F)(F)F)CCN1S(=O)(=O)c1ccc(C(C)(C)C)cc1", "experimental_system": "UniProtKB P50172", "qualifier_operator": "=", "reported_result": 7.77}
{"smiles_input": "O=S(=O)(c1cccc2ccccc12)N1CCN(c2ncccc2C(F)(F)F)CC1", "experimental_system": "UniProtKB P50172", "qualifier_operator": "=", "reported_result": 7.10}
{"smiles_input": "C[C@@H]1CN(c2ncccc2C(F)(F)F)CCN1S(=O)(=O)c1ccc(C(C)(C)C)cc1", "experimental_system": "UniProtKB P50172", "qualifier_operator": "=", "reported_result": 8.40}
{"smiles_input": "Cc1ccc(S(=O)(=O)N2CCN(c3ccccn3)CC2)cc1", "experimental_system": "UniProtKB P50172", "qualifier_operator": "<", "reported_result": 6.00}
{"smiles_input": "Cc1ccc(S(=O)(=O)N2CCN(c3ncccc3C)CC2)cc1", "experimental_system": "UniProtKB P50172", "qualifier_operator": "=", "reported_result": 6.62}
{"smiles_input": "Cc1ccc(S(=O)(=O)N2CCN(c3ncccc3C(F)(F)F)CC2)cc1", "experimental_system": "UniProtKB P50172", "qualifier_operator": "=", "reported_result": 7.49}
{"smiles_input": "COc1ccc(S(=O)(=O)N2CCN(c3ncccc3C(F)(F)F)CC2)cc1", "experimental_system": "UniProtKB P50172", "qualifier_operator": "=", "reported_result": 7.49}
{"smiles_input": "CC(C)(C)c1ccc(S(=O)(=O)N2CCN(c3ccc([N+](=O)[O-])cc3)CC2)cc1", "experimental_system": "UniProtKB P50172", "qualifier_operator": "=", "reported_result": 6.79}
{"smiles_input": "O=S(=O)(c1ccc2ccccc2c1)N1CCN(c2ncccc2C(F)(F)F)CC1", "experimental_system": "UniProtKB P50172", "qualifier_operator": "=", "reported_result": 7.96}

---

# experimental_system: 11-beta-hydroxysteroid dehydrogenase 1 (Homo sapiens)
pIC50: −log10 of the molar value.
Quick reference: pIC50 of the listed items.
value_type: pIC50

{"compound": "CC1CN(c2ncccc2C(F)(F)F)CCN1S(=O)(=O)c1ccc(C(C)(C)C)cc1 (stereo not given)", "qualifier_operator": "=", "reported_result": 6.20}
{"compound": "CC(C)(C)c1ccc(S(=O)(=O)N2CCN(c3ccc([N+](=O)[O-])cc3)CC2)cc1", "qualifier_operator": "=", "reported_result": 6.61}
{"compound": "C[C@H]1CN(c2ncccc2C(F)(F)F)CCN1S(=O)(=O)c1ccc(C(C)(C)C)cc1", "qualifier_operator": "=", "reported_result": 6.24}
{"compound": "Cc1ccc(S(=O)(=O)N2CCN(c3ncccc3C#N)CC2)cc1", "qualifier_operator": "<", "reported_result": 6.00}
{"compound": "O=S(=O)(c1ccccc1)N1CCN(c2ncccc2C(F)(F)F)CC1", "qualifier_operator": "=", "reported_result": 6.14}
{"compound": "O=S(=O)(c1cccc2ccccc12)N1CCN(c2ncccc2C(F)(F)F)CC1", "qualifier_operator": "=", "reported_result": 6.48}
{"compound": "O=S(=O)(c1cccc(C(F)(F)F)c1)N1CCN(c2ncccc2C(F)(F)F)CC1", "qualifier_operator": "<", "reported_result": 6.00}
{"compound": "Cc1ccc(S(=O)(=O)N2CCN(c3ncccc3C(F)(F)F)CC2)cc1", "qualifier_operator": "=", "reported_result": 6.34}
{"compound": "COc1ccc(S(=O)(=O)N2CCN(c3ncccc3C(F)(F)F)CC2)cc1", "qualifier_operator": "=", "reported_result": 6.34}
{"compound": "FC(F)(F)c1cccnc1N1CCN(Cc2ccccc2)CC1", "qualifier_operator": "=", "reported_result": 5.71}

---

# experimental_system: 11-beta-hydroxysteroid dehydrogenase 1 (Homo sapiens)
pIC50: −log10 of the molar value.
Please use T whenever pIC50 is not below 7, and F whenever it is.

{"molecule": "FC(F)(F)c1cccnc1N1CCN(Cc2ccccc2)CC1", "experimental_system": "11-beta-hydroxysteroid dehydrogenase 1 (Homo sapiens)", "assigned_category": "F"}
{"molecule": "COc1ccc(S(=O)(=O)N2CCN(c3ncccc3C(F)(F)F)CC2)cc1", "experimental_system": "11-beta-hydroxysteroid dehydrogenase 1 (Homo sapiens)", "assigned_category": "T"}
{"molecule": "N#Cc1ccc(S(=O)(=O)N2CCN(c3ncccc3C(F)(F)F)CC2)cc1", "experimental_system": "11-beta-hydroxysteroid dehydrogenase 1 (Homo sapiens)", "assigned_category": "T"}
{"molecule": "CC(C)(C)c1ccc(S(=O)(=O)N2CCN(c3ccc([N+](=O)[O-])cc3)CC2)cc1", "experimental_system": "11-beta-hydroxysteroid dehydrogenase 1 (Homo sapiens)", "assigned_category": "T"}
{"molecule": "O=S(=O)(c1ccccc1)N1CCN(c2ncccc2C(F)(F)F)CC1", "experimental_system": "11-beta-hydroxysteroid dehydrogenase 1 (Homo sapiens)", "assigned_category": "T"}
{"molecule": "CC1CN(c2ncccc2C(F)(F)F)CCN1S(=O)(=O)c1ccc(C(C)(C)C)cc1 (stereo not given)", "experimental_system": "11-beta-hydroxysteroid dehydrogenase 1 (Homo sapiens)", "assigned_category": "T"}
{"molecule": "C[C@H]1CN(c2ncccc2C(F)(F)F)CCN1S(=O)(=O)c1ccc(C(C)(C)C)cc1", "experimental_system": "11-beta-hydroxysteroid dehydrogenase 1 (Homo sapiens)", "assigned_category": "T"}
{"molecule": "Cc1ccc(S(=O)(=O)N2CCN(c3ncccc3C(F)(F)F)CC2)cc1", "experimental_system": "11-beta-hydroxysteroid dehydrogenase 1 (Homo sapiens)", "assigned_category": "T"}
{"molecule": "Cc1ccc(S(=O)(=O)N2CCN(c3ccccn3)CC2)cc1", "experimental_system": "11-beta-hydroxysteroid dehydrogenase 1 (Homo sapiens)", "assigned_category": "F"}
{"molecule": "O=C(c1ccccc1)N1CCN(c2ncccc2C(F)(F)F)CC1", "experimental_system": "11-beta-hydroxysteroid dehydrogenase 1 (Homo sapiens)", "assigned_category": "F"}
{"molecule": "O=S(=O)(c1cccc2ccccc12)N1CCN(c2ncccc2C(F)(F)F)CC1", "experimental_system": "11-beta-hydroxysteroid dehydrogenase 1 (Homo sapiens)", "assigned_category": "T"}
{"molecule": "CCc1ccc(S(=O)(=O)N2CCN(c3ncccc3C(F)(F)F)CC2)cc1", "experimental_system": "11-beta-hydroxysteroid dehydrogenase 1 (Homo sapiens)", "assigned_category": "T"}
{"molecule": "C[C@@H]1CN(c2ncccc2C(F)(F)F)CCN1S(=O)(=O)c1ccc(C(C)(C)C)cc1", "experimental_system": "11-beta-hydroxysteroid dehydrogenase 1 (Homo sapiens)", "assigned_category": "T"}
{"molecule": "CCC1CN(c2ncccc2C(F)(F)F)CCN1S(=O)(=O)c1ccc(C(C)(C)C)cc1 (stereo not given)", "experimental_system": "11-beta-hydroxysteroid dehydrogenase 1 (Homo sapiens)", "assigned_category": "T"}
{"molecule": "O=[N+]([O-])c1ccc(S(=O)(=O)N2CCN(c3ncccc3C(F)(F)F)CC2)cc1", "experimental_system": "11-beta-hydroxysteroid dehydrogenase 1 (Homo sapiens)", "assigned_category": "T"}
{"molecule": "Cc1ccc(S(=O)(=O)N2CCN(c3ncccc3C#N)CC2)cc1", "experimental_system": "11-beta-hydroxysteroid dehydrogenase 1 (Homo sapiens)", "assigned_category": "F"}
